Collected literature values of pIC50 measured for Lanosterol synthase ERG7 (Saccharomyces cerevisiae S288c).
pIC50: −log10 of the molar value.
Param threshold (6) applies to pIC50; output condition met when value >= threshold, condition not met when value < threshold.

- lineNotation: "CC(C)CCC[C@@H](C)[C@H]1CCC2=C(CCCN3CCCCC3)CCC[C@@]21C"
  qualitativeLabel: "condition not met"
- lineNotation: "C=CCN(C)CCCCCCOc1ccc2c(-c3ccc(Br)cc3)nsc2c1"
  qualitativeLabel: "condition met"
- lineNotation: "CCN(CC)CCCCC[C@H]1CC[C@H](N(C)S(=O)(=O)c2ccc(C(F)(F)F)cc2)CC1"
  qualitativeLabel: "condition not met"
- lineNotation: "CCCCCCOC/C=C(\\C)CC/C=C(\\C)CCCN(C)C"
  qualitativeLabel: "condition not met"
- lineNotation: "C=CCN(C)CCCCCCOc1ccc(-c2nsc3cc(Br)ccc23)cc1"
  qualitativeLabel: "condition met"
- lineNotation: "CNCCCC1=C2CC[C@H]([C@H](C)CCCC(C)C)[C@@]2(C)CCC1"
  qualitativeLabel: "condition not met"
- lineNotation: "C=CCN(C)C/C=C/COc1ccc2c(-c3ccc(Br)cc3)coc2c1"
  qualitativeLabel: "condition met"
- lineNotation: "Brc1ccc(-c2nsc3cc(OCCCCN4CCOCC4)ccc23)cc1"
  qualitativeLabel: "condition met"
- lineNotation: "CCN(CC#Cc1ccc2c(-c3ccc(Br)cc3)nsc2c1)CCO"
  qualitativeLabel: "condition met"
